biological target: AHR (Homo sapiens, UniProt P35869); construct: A human liver cancer cell line HepG2 endogenously expressing an AHR protein; test: Antagonistic effect for AHR in HepG2 cells stably transfected with CYP1A1-promoter firefly luciferase reporter; details: AHR agonist-stimulated, 24 h compound treatment, average of two replicates
Sequence (P35869 11-848): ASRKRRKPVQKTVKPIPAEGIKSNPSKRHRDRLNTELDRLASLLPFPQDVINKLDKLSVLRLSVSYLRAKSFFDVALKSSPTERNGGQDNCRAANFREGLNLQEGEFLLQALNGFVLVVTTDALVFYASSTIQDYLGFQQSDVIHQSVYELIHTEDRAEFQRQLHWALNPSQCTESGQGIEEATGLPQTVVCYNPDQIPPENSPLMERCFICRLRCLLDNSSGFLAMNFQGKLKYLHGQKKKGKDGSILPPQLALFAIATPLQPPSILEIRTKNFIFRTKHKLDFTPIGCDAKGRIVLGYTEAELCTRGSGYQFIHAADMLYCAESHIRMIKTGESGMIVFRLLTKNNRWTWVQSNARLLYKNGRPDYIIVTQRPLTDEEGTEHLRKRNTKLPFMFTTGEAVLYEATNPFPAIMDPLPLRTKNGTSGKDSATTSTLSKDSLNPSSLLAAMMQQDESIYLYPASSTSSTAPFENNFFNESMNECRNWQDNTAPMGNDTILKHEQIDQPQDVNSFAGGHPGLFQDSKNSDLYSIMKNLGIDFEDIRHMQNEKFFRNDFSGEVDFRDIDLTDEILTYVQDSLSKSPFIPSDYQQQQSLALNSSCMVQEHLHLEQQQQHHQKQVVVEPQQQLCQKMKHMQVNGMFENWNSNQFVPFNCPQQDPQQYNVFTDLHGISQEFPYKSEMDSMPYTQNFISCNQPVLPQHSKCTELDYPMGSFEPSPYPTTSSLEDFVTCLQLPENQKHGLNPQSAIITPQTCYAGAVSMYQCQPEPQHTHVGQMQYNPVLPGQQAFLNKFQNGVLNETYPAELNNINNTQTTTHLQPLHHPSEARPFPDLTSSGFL
measurement_label: IC50

Before answering, review these 4 worked examples.
- CC(C)NNC(=O)c1cc(-c2ccc(C(F)(F)F)cc2)nc(-c2cccnc2)n1 [Compound 10]: ≤ 500 nM
- CCN(NC(=O)c1cc(-c2ccc(C(F)(F)F)cc2)nc(-c2cccc(C)c2)n1)C(C)CO (centres unmarked) [Compound 53]: 500 to 1000 nM
- O=C(NN1C(=O)COCC1CO)c1cc(-c2ccc(Cl)cc2)nc(-c2cccnc2)n1 (centres unmarked) [Compound 29]: ≤ 500 nM
- CC1(C)COCC(=O)N1NC(=O)c1cc(-c2ccc(C(F)(F)F)cc2)nc(-c2cccnc2)n1 [Compound 30]: ≤ 500 nM

Field IC50 (entry CC(C)N(CCO)NC(=O)c1cc(-c2ccc(Cl)cc2)nc(-c2cccnc2)n1 [Compound 19] ) reads ≤ 500 nM
